molecular target: human α2C receptor (Homo sapiens); construct: expressed in transfected cells; host or cells: CHO cells, also recombinantly expressing chimeric G protein Gαqi3 and mitochondrial obelin (mtOb); assay: Antagonism against the adrenoreceptor α2C (luminescence, recombinant CHO cell line); type: cell-based; conditions: antagonism against adrenoreceptor α2C; noradrenaline 20 nM; tested up to 10 μM; read-out: IC50
Sequence (P18825 whole entry): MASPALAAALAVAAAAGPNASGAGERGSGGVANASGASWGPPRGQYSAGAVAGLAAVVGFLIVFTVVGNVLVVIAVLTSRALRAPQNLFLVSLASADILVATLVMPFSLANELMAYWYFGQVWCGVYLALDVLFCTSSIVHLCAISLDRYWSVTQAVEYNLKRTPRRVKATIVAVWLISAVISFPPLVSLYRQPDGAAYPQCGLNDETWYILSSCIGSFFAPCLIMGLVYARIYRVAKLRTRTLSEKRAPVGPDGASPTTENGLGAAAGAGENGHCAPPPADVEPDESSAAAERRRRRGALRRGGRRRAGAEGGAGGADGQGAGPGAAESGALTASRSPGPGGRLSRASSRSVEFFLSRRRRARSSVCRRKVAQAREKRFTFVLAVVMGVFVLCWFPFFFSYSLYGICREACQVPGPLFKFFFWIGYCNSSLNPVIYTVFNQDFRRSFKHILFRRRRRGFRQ
pIC50: −log10 of the molar value. Structures can show the parent of a compound that is named as a salt.
Measured pIC50, listed per entry.

{"compound": "CCCCN(C)C(=O)c1ccc(C(=O)N2CCC(N3CCCC(C)C3)CC2)cc1 (stereo not shown) [Example 35]", "pIC50": 6.91}
{"compound": "CC1CCCN(C2CCN(C(=O)c3ccc(C(=O)NC(C)(C)c4ccc(Cl)cc4)cc3)CC2)C1 (stereo not shown) [Example 77, trifluoroacetic acid salt]", "pIC50": 7.27}
{"compound": "COCC1CCCN(C2CCN(C(=O)c3ccc(C(C)(C)C)cc3)CC2)C1 (stereo not shown) [Example 19]", "pIC50": 8.10}
{"compound": "COCC1CCCN(C2CCN(C(=O)c3ccc(C(=O)NCc4ncc(F)cc4F)cc3)CC2)C1 (stereo not shown) [Example 97, trifluoroacetic acid salt]", "pIC50": 8.00}
{"compound": "C[C@@H]1CCCN(C2CCN(C(=O)c3ccc(C(=O)N(C)Cc4c(F)cccc4F)cc3)CC2)C1 [Example 84, trifluoroacetic acid salt]", "pIC50": 8.52}
{"compound": "CC1CCCN(C2CCN(C(=O)c3ccc(C(=O)NC(CO)Cc4ccc(Cl)cc4)cc3)CC2)C1 (stereo not shown) [Example 53]", "pIC50": 6.70}
{"compound": "CC1CCCN(C2CCN(C(=O)c3ccc(C4(C)COC4)cc3)CC2)C1 (stereo not shown) [Example 25]", "pIC50": 7.00}
